Origin of values: patent US12195427B2

Molecular target: MASP-2 CCP2-SP (Homo sapiens (Human))
Assay: MASP-2 co-crystallization, X-ray crystallography and structure analysis (H-bonds, van der Waals contacts)
Settings: Table A6-1 pharmacophore angle
Structures can show the parent of a compound that is named as a salt.
measurement.label: a(O1, O2, H4)
Lab note: write the figure by itself, no unit.

Query :: Give a(O1, O2, H4) (MASP-2 CCP2-SP (Homo sapiens (Human))) of the following compound: C[C@H](NC(=O)[C@H]1C[C@@H](c2ccccc2)CCN1)C(=O)NCc1ccc(C(=N)N)cc1 (stereo in doubt)
Result :: 148.95

Query :: Provide value of a(O1, O2, H4) for this record tested with MASP-2 CCP2-SP (Homo sapiens (Human)): "O=c1oc(-c2ccccc2[N+](=O)[O-])nc2ccccc12"
Result :: 61.95

Query :: Reported a(O1, O2, H4) for MASP-2 CCP2-SP (Homo sapiens (Human)), given Cc1nc(N)ccc1CNC(=O)C(C)NC(=O)C1CC(c2cccc3ccccc23)CCN1.Cl.Cl (stereo not drawn) [1297_1] ?
Result :: 130.08

Query :: # returns recorded a(O1, O2, H4) (system: MASP-2 CCP2-SP (Homo sapiens (Human))) for Cc1nc(N)ccc1CNC(=O)C(C)NC(=O)C1CC(c2cccc3ccccc23)CCN1.Cl.Cl (stereo not drawn) [1297_6]
Result :: 133.61

Query :: Lab request: please report a(O1, O2, H4) under test system MASP-2 CCP2-SP (Homo sapiens (Human)) for "C[C@H](NC(=O)[C@H](N)CCc1cccc(Cl)c1)C(=O)NCc1ccc(C(=N)N)cc1"
Result :: 138.44

Query :: Please tell me: a(O1, O2, H4) of "C[C@H](NC(=O)[C@H]1C[C@@H](c2ccccc2)CCN1)C(=O)NCc1cnc2[nH]cc(Cl)c2c1" , system MASP-2 CCP2-SP (Homo sapiens (Human))?
Result :: 118.66

Query :: Observed a(O1, O2, H4) on MASP-2 CCP2-SP (Homo sapiens (Human)) for "Cc1nc(N)ccc1CNC(=O)[C@H](C)NC(=O)[C@H]1C[C@H](Cc2ccc(-c3ccccc3)cc2)CN1" , please.
Result :: 132.32

Query :: # value lookup — system MASP-2 CCP2-SP (Homo sapiens (Human)), readout a(O1, O2, H4), item CC(NC(=O)C1CC(Cc2ccccc2)CN1)C(=O)NCc1cnc2c(c1)c(Cl)cn2C.Cl.Cl (stereo not drawn) [1450_B]
Result :: 109.15

Query :: Please state recorded a(O1, O2, H4) (tested on MASP-2 CCP2-SP (Homo sapiens (Human))) of CC(NC(=O)C(CCc1ccccc1)NCCCc1ccc(O)cc1)C(=O)NCc1ccc(C(=N)N)cc1.Cl.Cl (stereo not drawn)
Result :: 139.31

Query :: State its a(O1, O2, H4) on MASP-2 CCP2-SP (Homo sapiens (Human)): C[C@H](NC(=O)[C@H]1C[C@@H](c2ccccc2)CCN1)C(=O)NCc1cc(Cl)ccc1O.Cl [1078_16]
Result :: 101.76

Query :: Form: Entry = Cc1nc(N)ccc1CNC(=O)[C@H](C)NC(=O)[C@H]1C[C@@H](c2cccc3ccccc23)CCN1.Cl.Cl [1297_2] | System = MASP-2 CCP2-SP (Homo sapiens (Human)) | a(O1, O2, H4) = ____
Result :: 128.26

Query :: Record Cc1nc(N)ccc1CNC(=O)[C@H](C)NC(=O)[C@H]1C[C@H](Cc2ccccc2-c2ccccc2)CN1 [compound 1373, Di-trifluoroacetate salt] : what is its a(O1, O2, H4) with MASP-2 CCP2-SP (Homo sapiens (Human))?
Result :: 131.90

Query :: Checklist item: a(O1, O2, H4) tested on MASP-2 CCP2-SP (Homo sapiens (Human)), entry "CNC(=O)c1ccc2c(=O)n(Cc3ccccc3)c(=O)n(CC(=O)NCc3ccc(C(=N)N)cc3)c2c1" , value?
Result :: 118.45

Query :: a(O1, O2, H4) of C[C@H](NC(=O)[C@H](N)CCc1ccccc1)C(=O)NCc1ccc(N)nc1.Cl.Cl [1007_1] on MASP-2 CCP2-SP (Homo sapiens (Human))?
Result :: 113.31

Query :: Kindly state the measured a(O1, O2, H4) obtained for "Cc1nc(N)ccc1CNC(=O)[C@H](C)NC(=O)[C@H]1C[C@H](Cc2ccc3ccccc3c2)CN1" with MASP-2 CCP2-SP (Homo sapiens (Human)).
Result :: 131.78

Query :: Find the measured a(O1, O2, H4): item Cc1nc(N)ccc1CNC(=O)[C@H](C)NC(=O)[C@H]1C[C@H](Cc2cccc(Cl)c2)CN1.Cl.Cl [1328_3] , target or system MASP-2 CCP2-SP (Homo sapiens (Human)).
Result :: 122.23

Query :: API: value(readout=a(O1, O2, H4), system=MASP-2 CCP2-SP (Homo sapiens (Human))) for record "Cc1cnc(NCCc2ccccc2)c(=O)n1CC(=O)NCc1ccc2nc(N)[nH]c2c1"
Result :: 143.64

Query :: Item: "C[C@H](NC(=O)[C@@H](CCc1ccccc1)NCCCc1ccc(O)cc1)C(=O)NCc1ccc(C(=N)N)cc1.Cl.Cl" Test system: MASP-2 CCP2-SP (Homo sapiens (Human)) Read-out: a(O1, O2, H4) Value: ?
Result :: 139.31

* * *

Target: MASP-2 CCP2-SP (Homo sapiens (Human), UniProt O00187)
Sequence (O00187 445-686): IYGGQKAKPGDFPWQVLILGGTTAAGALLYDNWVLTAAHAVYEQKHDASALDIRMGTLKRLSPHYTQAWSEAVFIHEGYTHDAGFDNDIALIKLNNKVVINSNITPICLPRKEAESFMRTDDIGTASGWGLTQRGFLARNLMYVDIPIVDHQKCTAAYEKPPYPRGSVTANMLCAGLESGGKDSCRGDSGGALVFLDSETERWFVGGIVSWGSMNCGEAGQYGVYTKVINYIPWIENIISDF
Sequence (O00187 364-432 partner): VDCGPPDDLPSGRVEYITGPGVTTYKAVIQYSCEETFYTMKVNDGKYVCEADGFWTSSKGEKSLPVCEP
Test: MASP-2 co-crystallization, X-ray crystallography and structure analysis (H-bonds, van der Waals contacts)
Conditions: Table A8-6; nearest protein atom in cell to the left
measurement.label: Pharmacophore protein distance to SER_611
# output: bare number, no unit

Query :: # Pharmacophore protein distance to SER_611 lookup, item CC(NC(=O)C(CCc1ccccc1)NCc1ccc(C(=O)N2CCOCC2)cc1)C(=O)NCc1ccc(C(=N)N)cc1.Cl.Cl (stereo not shown)
Result :: 2.46

Query :: I am curious: what Pharmacophore protein distance to SER_611 value has been reported for "N=C(N)c1ccc(CNC(=O)[C@@H]2CCN2C(=O)[C@H]2Cc3ccccc3CN2)cc1" ?
Result :: 3.32

Query :: If you can, please state the reported Pharmacophore protein distance to SER_611 value of "C[C@H](NC(=O)[C@H](N)CCc1cccc(Cl)c1)C(=O)NCc1ccc(C(=N)N)cc1" .
Result :: 2.66

Query :: Value lookup for Pharmacophore protein distance to SER_611; key = "C[C@H](NC(=O)[C@H](N)C1Cc2ccccc2C1)C(=O)NCc1ccc2nc(N)[nH]c2c1"
Result :: 2.61

* * *

Molecular target: MASP-2 CCP2-SP (Homo sapiens (Human), UniProt O00187)
Experiment: MASP-2 co-crystallization, X-ray crystallography and structure analysis (H-bonds, van der Waals contacts)
Details: Table A7-1; between pharmacophore elements of the bound compound
Source text: This example illustrates the preparation of recombinant MASP-2 protein, based on UniProt O00187, human mannan-binding lectin serine protease 2. Expression constructs for human MASP-2 CCP2-SP and CCP2-SP-6HIS were generated for recombinant expression in E. coli cells. […]
Field 'label' (enum: Met / Not met). Set to Met when Pharmacophore torsion angle a(O1, O2, N2, C2) is strictly under 100; else Not met.

Query :: Regarding C[C@H](NC(=O)[C@H]1C[C@@H](c2ccccc2)CCN1)C(=O)NCc1cc(Cl)ccc1O.Cl [1078_16] , kindly confirm whether its Pharmacophore torsion angle a(O1, O2, N2, C2) is beneath 100.
Result :: Not met

Query :: Is it true that Pharmacophore torsion angle a(O1, O2, N2, C2) reported for CC(NC(=O)C(CCc1ccccc1)NCc1ccc(C(=O)N2CCOCC2)cc1)C(=O)NCc1ccc(C(=N)N)cc1.Cl.Cl (stereo not shown) is less than 100?
Result :: Met

Query :: Decide: Pharmacophore torsion angle a(O1, O2, N2, C2) of "N=C(N)c1ccc(CNC(=O)[C@@H]2CCN2C(=O)[C@H](NCC(=O)O)C2Cc3ccccc3C2)cc1" strictly below 100?
Result :: Met

Query :: Lab log: compare recorded Pharmacophore torsion angle a(O1, O2, N2, C2) with 100; is it strictly lower for C[C@H](NC(=O)[C@H](N)C1Cc2ccccc2C1)C(=O)NCc1ccc2c(N)nccc2c1.Cl.Cl [1088_B] ?
Result :: Not met

Query :: is_below(Pharmacophore torsion angle a(O1, O2, N2, C2), 100) for C[C@H](NC(=O)[C@H]1Cc2c([nH]c3ccccc23)CN1)C(=O)NCc1ccc(C(=N)N)cc1.Cl.Cl [1097_2] ?
Result :: Not met

Query :: Is 100 strictly greater than the compound's reported Pharmacophore torsion angle a(O1, O2, N2, C2)? compound: C[C@H](NC(=O)[C@H]1C[C@@H](c2ccccc2)CCN1)C(=O)NCc1cc(Cl)ccc1O.Cl [1078_2]
Result :: Not met

Query :: Does this compound meet the criterion Pharmacophore torsion angle a(O1, O2, N2, C2) < 100? C[C@H](NC(=O)[C@H]1C[C@@H](c2ccccc2)CCN1)C(=O)NCc1cc(Cl)ccc1O.Cl [1078_15]
Result :: Not met
